Answer each item with its documented pIC50.
- Tested System: recombinant rat GluN1/GluN2C (Rattus norvegicus, UniProt P35439+Q00961)
- Construct: expressed in transfected cells; host or cells: Xenopus laevis oocytes injected with cRNA (GluN1:GluN2 ratio 1:2)
- Sequence (Q00961 20-1237, other chains not shown): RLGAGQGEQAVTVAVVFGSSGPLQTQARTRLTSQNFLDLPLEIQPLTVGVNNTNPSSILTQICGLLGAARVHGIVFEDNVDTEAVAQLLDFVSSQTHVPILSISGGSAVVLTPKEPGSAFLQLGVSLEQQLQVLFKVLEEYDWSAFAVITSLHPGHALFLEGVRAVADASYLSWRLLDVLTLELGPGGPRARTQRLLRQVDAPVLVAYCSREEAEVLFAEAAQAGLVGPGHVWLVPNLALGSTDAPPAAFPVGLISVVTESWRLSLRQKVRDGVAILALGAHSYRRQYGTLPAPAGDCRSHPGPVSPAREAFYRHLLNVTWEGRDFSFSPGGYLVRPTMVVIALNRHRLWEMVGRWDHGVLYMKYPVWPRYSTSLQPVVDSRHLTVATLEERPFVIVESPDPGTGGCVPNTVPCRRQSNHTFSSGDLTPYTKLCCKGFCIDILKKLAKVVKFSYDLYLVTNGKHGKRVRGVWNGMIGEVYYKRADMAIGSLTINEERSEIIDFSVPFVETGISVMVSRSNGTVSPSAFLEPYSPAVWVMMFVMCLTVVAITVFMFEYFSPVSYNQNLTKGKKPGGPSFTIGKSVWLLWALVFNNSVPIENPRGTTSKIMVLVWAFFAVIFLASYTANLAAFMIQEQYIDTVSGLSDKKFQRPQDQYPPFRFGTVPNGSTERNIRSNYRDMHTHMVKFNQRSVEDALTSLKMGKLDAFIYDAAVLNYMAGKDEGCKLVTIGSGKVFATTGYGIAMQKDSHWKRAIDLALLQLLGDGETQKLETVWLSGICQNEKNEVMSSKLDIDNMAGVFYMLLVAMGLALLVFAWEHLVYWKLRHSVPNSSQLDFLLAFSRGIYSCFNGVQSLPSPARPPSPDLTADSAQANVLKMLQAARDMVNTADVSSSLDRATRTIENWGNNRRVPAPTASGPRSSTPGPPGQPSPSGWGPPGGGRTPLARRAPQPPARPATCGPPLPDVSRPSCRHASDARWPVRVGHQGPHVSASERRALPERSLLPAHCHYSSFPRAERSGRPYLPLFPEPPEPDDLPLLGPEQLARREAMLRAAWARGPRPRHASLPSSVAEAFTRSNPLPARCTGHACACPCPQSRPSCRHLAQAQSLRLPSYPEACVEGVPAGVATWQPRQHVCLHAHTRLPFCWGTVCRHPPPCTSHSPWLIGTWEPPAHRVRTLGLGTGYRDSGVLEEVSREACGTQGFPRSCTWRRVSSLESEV
- Protocol Description: Two-electrode voltage-clamp recordings in Xenopus laevis oocytes, GluN2C
- Format: cell-based
- Conditions: oocytes, 100 μM glutamate and 30 μM glycine; read-out: GluN2C IC50
Kindly note that pIC50 refers to -log10 of the concentration in mol/L and answer with the value alone.

Q: For O=C(O)CC(F)(F)C(=O)N1N=C(c2c(-c3ccc(Cl)cc3)c3ccccc3[nH]c2=O)CC1c1ccc(F)cc1 (stereo not shown) [997-104] , what is its reported pIC50?
Result: 5.80

Q: Please report the recorded pIC50 for Cc1ccc2[nH]c(=O)c(C3=NN(C(=O)CC(F)(F)CO)C(c4ccc(Cl)cc4)C3)c(-c3ccc(Cl)cc3)c2c1 (stereo not shown) [997-91] .
Result: 5.15

Q: Field request: pIC50 | item: O=C(O)CC(F)(F)C(=O)N1N=C(c2c(-c3ccc(Cl)cc3)c3ccccc3[nH]c2=S)CC1c1ccc(Cl)cc1 (stereo not shown) [997-98]
Result: 6.36

Q: Which value of pIC50 has been reported for O=C(CC(F)(F)CO)N1N=C(c2c(-c3ccc(Cl)cc3)c3ccccc3[nH]c2=O)CC1c1ccc(Cl)cc1 (single isomer, unassigned; (-)) [(−)-997-67] in the records?
Result: 5.85

Q: Using the record for O=C(O)CCC(=O)N1N=C(c2c(-c3ccc(Cl)cc3)c3ccccc3[nH]c2=O)CC1c1ccc(C(F)(F)F)cc1 (stereo not shown) [997-112] , report its pIC50.
Result: 6.46

Q: Return reported pIC50; argument: O=C(O)CCC(=O)N1N=C(c2c(-c3ccc(Cl)cc3)c3ccccc3[nH]c2=O)CC1c1ccc(Cl)s1 (stereo not shown) [997-111]
Result: 5.89

Q: Reported pIC50 for O=C(O)CC(F)(F)C(=O)N1N=C(c2ccccc2-c2ccc(Cl)cc2)CC1c1ccc(Cl)s1 (stereo not shown) [997-118] : what is it?
Result: 5.43

Q: Any idea what pIC50 was measured for Cc1ccc2[nH]c(=O)c(C3=NN(C(=O)C(F)(F)CC(=O)O)C(c4ccc(Cl)cc4)C3)c(-c3ccc(Cl)cc3)c2c1 (single isomer, unassigned; (+)) [(+)-997-90] ?
Result: 5.68

Q: Entry O=C(O)CCC(=O)N1N=C(c2c(-c3ccc(Cl)cc3)c3ccccc3[nH]c2=O)CC1c1ccc(Cl)nc1 (stereo not shown) [997-92] has what pIC50?
Result: 5.10

Q: Consider the molecule shown here: O=C(O)CCC(=O)N1N=C(c2ccccc2-c2ccc(Cl)cc2)CC1c1ccc(Cl)cc1 (stereo not shown) [997-99] What is its recorded pIC50?
Result: 4.80

Q: Fill in the blank: the reported pIC50 of O=C(CC(F)(F)C(=O)O)N1N=C(c2c(-c3ccc(Cl)cc3)c3ccccc3[nH]c2=O)CC1c1ccc(Cl)cc1 (stereo not shown) [997-114] is ____.
Result: 6.47

Q: Looking for the measured pIC50 of NC(=O)C(F)(F)CC(=O)N1N=C(c2c(-c3ccc(Cl)cc3)c3ccccc3[nH]c2=O)CC1c1ccc(Cl)cc1 (stereo not shown) [997-115] , can you help?
Result: 5.84

Q: Which pIC50 is reported for this molecule? O=C(O)CC(F)(F)C(=O)N1N=C(c2c(-c3ccc(Cl)cc3)c3ccccc3[nH]c2=O)C[C@H]1c1ccc(Cl)cc1 [(−)-997-74]
Result: 7.03

Q: Recorded pIC50 for O=C(O)/C=C(/F)C(=O)N1N=C(c2c(-c3ccc(Cl)cc3)c3ccccc3[nH]c2=O)CC1c1ccc(Cl)cc1 (stereo not shown) [997-101] , please?
Result: 7.15

Q: Given the entry O=C(O)CC(F)(F)C(=O)N1N=C(c2c(-c3ccc(F)cc3)c3ccccc3[nH]c2=O)CC1c1ccc(F)cc1 (stereo not shown) [997-103] , report its measured pIC50.
Result: 5.15

Q: Give its pIC50 value. Item: O=C(O)CC(F)(F)C(=O)N1N=C(c2ccccc2-c2ccc(Cl)cc2)CC1c1ccc(Cl)cc1 (stereo not shown) [997-95]
Result: 5.32
